System: K4 kissing-loop RNA reporter;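 also: bound reporter read as fluorescence of individual clusters on recovered sequencing chips by microscopy, with normalized cluster intensities fitted with a binding model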
Test: apparent KD of K4 kissing-loop reporter; higher = weaker reporter binding
Details: Eterna round: R107; input ligand: theophylline 20 uM

# Sequence chain, apparent KD of K4 kissing-loop reporter [nM]
data = [
    ("GGAUUCGGCGCGGCCGCCACUUCCGGUGGCUGGUGUCAUGGUGCGCGUGAGUGAUGUUUAUGUGGGAGGACCGGGCGUUGAGUCC [whbob_Ex_Tryp_B_w45]", 441),
    ("GCAAACCUCAGUGAUGUUGAGAAAUCGGAAGGAGCGCGUGAAAACGCAGGUAGGUCGCCGACACAUGAAGUAUCUUCGUGUUUGC [Arginine A K4 22]", 328),
    ("UGAUUAAGCAGUGAUGUUGCAAGUAAUGAUACCAGUUAAGAAGAGAACCCUUGGCAGCAUAAAGUGCGCUCUGAUGAGUGUGCUU [whbob_SS_Theo_A_w53]", 169),
]

---

Test system: MS2 coat protein
Test: apparent KD of MS2 coat protein; designed switch direction (-1 OFF switch, 1 ON switch): 1; higher = weaker reporter binding
Conditions: Eterna round: R98; input ligand: FMN 200 uM
Short version: apparent KD of MS2 coat protein at least 100 nM is TRUE, less is FALSE.

# Sequence chain, Group label
rows = [
    ("CGGAUGCAAAUAAAACAUGAGGAUCACCCAUGUGAGUCUCAUGAGGAUAUGCAGGUCAAAGACUUGCAGAAGGCAUGGCGUCCG [Mat - Same State NG 3 - JL Mod - D71]", "TRUE"),
    ("GCUGCUAUCGCAGGAUAUUACAUGGGAAAGAAUACAUGAGGAUCACCCAUGUAAAAGAUCAUAAAUAAGAAGGGCGAUAGCAGC [Lame State 6 - Jieux - Same State NG 2]", "TRUE"),
    ("GCAGAAGGUGCAGAGGAUCACCCUGUAAGGAUAUGCAUUAGCAAGGAUAUACAGAGGAUCACCCUGUAGAAGGUGCACUACUCU [pwkr2 ssNG3 DX.2]", "TRUE"),
    ("CACACAUGAGGAUCACCCAUGUCGUGGGCGGAAAACUGUGCACAGGAUAUGGUGAGGGCAACUCACCAGAAGGGUGGUCAGGAA [Zaenen]", "FALSE"),
    ("UGUUUGAGCAUAGGAUAUACUGGGAAGGUCCACAUGAGGAUCACCCAUGUAGAGGCUGUUAGACAGUAGAAGGGUGAUCCGAUA [Zariatbege]", "TRUE"),
    ("CAUGUCCUCACAGGAUAUGCUGGACUUUGUCCAGCAGAAGGGUGAACAUGAGGAUCACCCAUGUUGUGGACAUGUAUAUUUAAU [Denovo 12]", "TRUE"),
    ("CAGCAAUUCUUAGGAUAUGCUCAGGAAUACUGAGCAGAAGGAAGAUAUACCUGAGGAUCACCCAGGUUAAACUGAAGCUGAAAA [Same State NG1 - A3C, U17G Submission 7A]", "FALSE"),
    ("ACAUACUUUCGAGGAUAUCGGUGAUAAAUUUGACGAGAAGGCGAUAAAAGAUAUAAUCUUAUAGACAUGAGGAUCACCCAUGUA [JR_SSNG1_Sub015]", "FALSE"),
    ("GCUGUCGCAUGAGGAUAUGGUCAGCUUUGCUGACCAGAAGGCAUGUCGAUAGACAUGAGGAUCACCCAUGUAGUAAAGACAGCA [jl-sng1-2.08 jl mod]", "FALSE"),
    ("CACACAUGGUGAGGAUAUGCAAAGGAUCACCUUGUAGAAGGCAUCAGGGUAGAAGGUGCAAGGAUCACCUGUAAGGAUAUAUCC [pwkr2 ssNG1 DX.24]", "TRUE"),
    ("GGUCGUCACAUCUACAUGAGGAUCACCCAUGUCGAAAGACAUGAGGAUAUGCAUCCUAAUUGGAUGCAGAAGGCAUGGACGACC [Mat - Same State NG 3 - JL Mod - D22]", "FALSE"),
    ("AGAACAUGAGGAUCACCCAUGUUAAGGUCGGUAAAUAAGGGUGAGGAUAUGCUUAAAAUAAGGUAGCAGAAGGUGCUUGGUGCA [SameState #76 NG3]", "TRUE"),
]

---

System: MS2 coat protein
Test: apparent KD of MS2 coat protein; designed switch direction (-1 OFF switch, 1 ON switch): -1; higher = weaker reporter binding
Settings: Eterna round: R95; input ligand: microRNA oligo, concentration not stated
Short version: apparent KD of MS2 coat protein at least 40 nM is 1.0, less is 0.0.

# Sequence chain, Group label
records = [
    ("GAUUAUGCGAGCUUUAGGGACAUGAGGAUCACCCAUGUUCGUCUUAUUAGUCUAGGUACACUAACAUACCUAAAUCU [JMF 18] (puzzle: Sensor v3, turn-off variant 1)", 0.0),
    ("UUUUAACAUGAGGAUCACCCAUGUGAGGAUAUCGAAAUUUAUAUUAAUAUUAUUAAUUCGAGAAGGCACAUUUU [JMF 37] (puzzle: Exclusion 1)", 1.0),
    ("CUAUUCCGAGGAUAUACAUGAGGAUCACCCAUGUCGGGCCUCCGCGUUUCGCGCCUCAGUAGAAGGCGGGUUUC [JL Riri mod 1] (puzzle: Exclusion 3)", 0.0),
    ("GUGUAGUCAGGAUAUACAGAGGAAGAUAAUACAAUAUAAGUACAUGAGGAUCACCCAUGUAGAAGGGACAGUGU [Excluse me!! 10 - Jieux - Exclusion 2] (puzzle: Exclusion 2)", 0.0),
    ("UAACAGCGAGGAUAUACAUGAGGAUCACCCAUGUACGGGUCCGGGUUUUCGUCCAAAAGUAGAAGGCGCAAUAA [Laongeedte] (puzzle: Exclusion 3)", 0.0),
]

---

Tested on: MS2 coat protein
Test: apparent KD of MS2 coat protein, switch ON state; designed switch direction (-1 OFF switch, 1 ON switch): -1; higher = weaker reporter binding
Conditions: FMN input: 0 or 200 uM; Eterna round: R93 (includes R88 designs)

# Sequence chain, Tested on, apparent KD of MS2 coat protein, µM
rows = [
    ("AGCUAGUCAGGAUAUACGAGAAAGAAAGAAGACGUGAAGGGACAUGAGGAUCACCCAUGUAGAAGGGACUAGCA [Diamond 26]", "MS2 coat protein", 0.0303),
    ("AAGAACGAAGGAUAUACAAAAUAAAAGAAAAGAAAGAAAGAACAUGAGGAUCACCCAUGUAGAAGGUCGAAGAA [Awybre Hor I]", "MS2 coat protein", 0.0105),
    ("AAAAAGUCAGGAUAUGCGAAGGCGUCUGAUAGACGAGGCUAGCAGAAGGGACAUGAGGAUCACCCAUGUAAAGA [Mat - Exclusion 4 - D82]", "MS2 coat protein", 0.05),
    ("AAAAAUGGAGGAUAUACAUGAGGAUCACCCAUGUGUAACUAUACAAAACACAAAAAAAGUAGAAGGCCAAAAAA [Gilly Gone Silly 7 - Jieux - Exclusion 3]", "MS2 coat protein", 0.0201),
    ("AUAGUACAUGAGGAUCACCCAUGUCAGGAUAUGCGAAACGAAAAAAAAAAAAAGUGAAGUAGAAGGGACUAUAA [EX1 Malc#9]", "MS2 coat protein", 0.0298),
    ("AAAAGACAUGAGGAUCACCCAUGUCAGGAUAUGACUUGAAAAAAAAAAAAAAAACAUGUCAGAAGGGACAUGAA [Design 45: Sub-opt D]", "MS2 coat protein", 0.0206),
    ("AGAAAACAUGAGGAUCACCCAUGUGAGGAUAUCUAAAAGAAAAGAAAAGAAAGAAGAAGGAGAAGGCACAAGAA [Sanakhte]", "MS2 coat protein", 0.0374),
    ("AAGGAUAGAGGAUAUACAUAGAUACAGAUUCAUGUAGAACUACAUGAGGAUCACCCAUGUAGAAGGCUAUCAUA [AJ 32]", "MS2 coat protein", 0.0279),
]

---

Tested on: MS2 coat protein
Experiment: apparent KD of MS2 coat protein; higher = weaker reporter binding
Conditions: Eterna round: R107; input ligand: theophylline 2 mM
Quick reference: apparent KD of MS2 coat protein of the listed items.

# Sequence chain, Display unit, apparent KD of MS2 coat protein
data = [
    ("AGUCUUAAUGGAAGGAGCGCAGUCAUAACAUGAGGAUCACCCAUGUCGAGGUGAGGGUCAUUGCAGGUAGGUCGCCAUACUAAGA [Same State - Arginine B (Freestyle 3)]", "nM", 265),
    ("UGACAUUGCUCAGAUACCAGACAUGAGCAUCAGCCAUGUACCAAGAGUACAUGUUAAAAUGUCCCUUGGCAGCUGAGCAAUGUCU [Mod of Eli's TheoBX5 #AlternateMS2 v2]", "nM", 452),
    ("GCUGUGAAGUCGGCCGCCACUGGUUAGUUUAACCUCAUGUAACAUGAGGAUCACCCAUGUAAUGUCAGGACCGGGACAACAGCAA [JR_ExcTryptoB_Sub016]", "nM", 289),
    ("GCGGACAUGAGGAUCACCCAUGUAAAUCCUCGAGGACCGGUACGGCCGCCACUCGAACGAGUGGCGCGCGCGCGCGCGCGCGCGC [aAa]", "nM", 78.9),
    ("GGAAACCAAAGCGAUACCAGCGUACAUGAAAAGAGCGAAAACAUGAGGAUCACCCAUGUACGCCCUUGGCAGCGCAAAACCAAGG", "nM", 103),
    ("AACUGAAGCACCUUAUGCGGCGGCAAAACCCGAGGACCGGUACGGCCGCCACUCGAGUCGCAACAUGAGGAUCACCCAUGUGUAU [theeternabot_exclusion_MS2_Trp_A_30]", "nM", 78.8),
    ("AGCACUGUGGCGGCCGCCACUACAUAUAGGGUGGUCAGGCCCAUAAUACAUGAGGAUCACCCAUGUAGGACCGGGCCUCAGUGCA [Omei Trp Exc B A v13]", "nM", 16.5),
    ("GGGUACAUCGCGGCCGCCACUCAUGUAAAUGCAUGAGGAUCACCCAUGCCGAUGGAGACAUCGGAGAGGACCGGGUGAUGUACCG", "nM", 71.1),
    ("GGGCGCUAUCCCGCGAGGGAUAGCGUUCGGCGAGGACCGGUACGGCCGCCACUCGAACGAGUGGGUACAUGAGGAUCACCCAUGU [Faa]", "nM", 36.3),
    ("GGUCUCUGGAGCGAUACCAGCUUGAGUGUACUGGCCAGGUACAUGAGGAUCACCCAUGUAAGCCCUUGGCAGCGCUCCAGAGACC [#1 Exclusion - Theophylline B Attempt #15 (HarryS)]", "nM", 44.7),
    ("GCUGUGAAGUCGGCCGCCACUGGUUAGUUUUACCUCAUGUAACAUGAGGAUCACCCAUGUAAUUUCAGGACCGGGACAACAGCAA [JR_ExcTryptoB_Sub017]", "nM", 853),
    ("UGGAGAUAGACGGCCGCCACUAACAUGAGGAUCACCCAUGUCGUCACGAAUGGAUGGCCCUAGAAUAGGACCGGGUCCGGAUUCA [theeternabot_exclusion_MS2_Trp_B_48]", "nM", 50.6),
    ("GCUAGUGGCAGAAGGAGCGAGGCCCGCGCACAUAACAUGAGGAUCACCCAUGUGGCGAGACCUCAGGUAGGUCGCUGCCACUAGC [EAB NP+V2 #1]", "nM", 14.2),
    ("CUCUCAUGAACAUGAGGAUCACCCAUGUAACGAGGACCGGUACGGCCGCCACUCGAACGUGGAAACCAAUCGAGUGAGGUGGGAG [Tryp A Ex t5b]", "nM", 119),
    ("AAUGUGAUAGUCGUACUCUCACACUGAGAAGGAGCGCGAAAGUUCGCAGGUAGGUCGCUCAGUUAUACAUGAGGAUCACCCAUGU [Edgeised]", "nM", 27.3),
    ("GGACUAACCAGAAGGAGCGGCACGCAGAAACUGCAAAUUCCUCCACACGAGGAUCACCCGUGUCAGGUAGGUCGCUGGUUAGUCG", "nM", 27.6),
    ("UCGACAAGAACAAUAAACAGCACUUGAGAAGGAGCGCGGAAAUCCGCAGGUAGGUCGCUCAUGUGUACAUGAGGAUCACCCAUGU [Inveonxeed]", "nM", 40.8),
    ("GGAUAGGACACGGCCGCCACUACCUAGGAUACUAGCAACAUUUGGGUGCACGAGGAUCACCCGUGUAGGACCGGGUGUCCUAUCG", "nM", 102),
    ("UAACAUGAGGAUCACCCAUGUAUACUUAGUCGAGGACCGGUACGGCCGCCACUCGUACUUCAAGAUUUGGCGGAAAAUGUAUGUA [JR_ExcTryptoA_Sub021]", "nM", 12.5),
    ("AGCAACAAGUCGGCCGCCACUCAUUUAACAUGAGGAUCACCCAUGUGAAUAACAUGGUUGUAAUAGAGGACCGGGACAGUUGCAU [JR_SSTryptoB_Sub016]", "nM", 401),
    ("AGCACUGUGACGGCCGCCACUAUAUAUAGGGUGGUCAGGUUCAUAAUACAUGAGGAUCACCCAUGUAGGACCGGGUCUCAGUGCA [Omei Trp Exc B A v4]", "nM", 10.9),
    ("AUAUCUUCCACGGCCGCCACUGAAUGGUGCCCAAGGUCGAUCGCAGACAUGAGGAUCACCCAUGUCAGGACCGGGUGGUACUACG [theeternabot_exclusion_MS2_Trp_B_23]", "nM", 15.7),
    ("CAGGUGGACUGAAGGAGCGAGUCAGGGACUUACAUGAGGAUCACCCAUGUCACGGUCGUCACUCAGGUAGGUCGCAGUUCGCCUC [Diinan]", "nM", 628),
    ("GUUUUGGGAUCGGCCGCCACUACAUGAGGAUCACCCAUGUGGACAAAUAGGGUUUUUAAGCUCGGUAGGACCGGGAUUCGAACAU [Abeis]", "nM", 17.5),
]

Values were extracted from the supplement of paper PMC9170038.
